KIDNEY_R values by entry
organism: Rattus norvegicus; assay: Open TG-GATES - Regimen: Daily Repeat; type: toxicity, organism-based, Sprague-Dawley; parameters: regimen Daily Repeat, gender Male, age 6 weeks; conditions: in vivo, po, 10 mg/kg, […], tissue Kidney, route gavage, dose level Low, time 28 day
Numeric answer only, unit g assumed.

{"molecule": "CC1=C(/C=C/C(C)=C/C=C/C(C)=C/CO)C(C)(C)CCC1 [RETINOL]", "readout.value": 1.3}
{"molecule": "CC(C)OC(=O)C(C)(C)Oc1ccc(C(=O)c2ccc(Cl)cc2)cc1 [FENOFIBRATE]", "readout.value": 1.5}
{"molecule": "CN(C)CCCN1c2ccccc2CCc2ccccc21 [IMIPRAMINE]", "readout.value": 1.3}

# evaluate next
### Prompt What does the record list as KIDNEY_R for `CN(C)CCN(Cc1cccs1)c1ccccn1` ?
### Response 1.3
